- Test system: Lactobacillus casei ATCC 4646
- assay_protocol: Growth inhibition by aldehydes in product vehicles, pour-plate technique
- Format: cell-based
- assay_context: in sucrose syrup, 1 to 5 percent aldehyde, 2 h incubation
outcome_measure: Growth Inhibition

# example entries with known answers
compound | Growth Inhibition
O=CCCCC=O | N.S.
CCCCCCCCCC=O | 99.5 Per cent
O=C[C@H](O)CO (racemic) | 0 Per cent
CC(=O)C=O | 97.5 Per cent

Consider the record given below.
Consider the compound shown here: "O=CCO" What is its recorded Growth Inhibition?
N.S.

====

- Tested on: Streptococcus spp. KI-R
- assay_protocol: Acid production inhibition by aldehydes in product vehicles, broth-tube technique
- Format: cell-based
- assay_context: in compressed candy tablet, 1 to 5 percent aldehyde, 24 h incubation
Catalogue of Acid Production Inhibition readings, one per entry.
State the answer as a number, implicitly in Per Cent.

molecule | Acid Production Inhibition (Per Cent)
O=CCO | 73
CCCCCCCCCC=O | 98
O=C[C@H](O)CO (racemic) | 84
CC(=O)C=O | 83

Data request, read-out Acid Production Inhibition, for "O=CCCCC=O"
100

====

Entries and their measured Growth Inhibition follow.
- Tested on: Streptococcus spp. KI-R
- assay_protocol: Growth inhibition by aldehydes in product vehicles, pour-plate technique
- Type: cell-based
- assay_context: in dextrose syrup, 1 to 5 percent aldehyde, 24 h incubation
Give a bare numeral; the unit Per Cent is implied.

Here's what some known entries look like.
chemical_structure | Growth Inhibition (Per Cent)
CC(=O)C=O | 100
O=CCCCC=O | 0
CCCCCCCCCC=O | 100

# evaluate next
Which Growth Inhibition is reported for this molecule? "O=CCO"
100

====

- Tested on: Streptococcus spp. KI-R
- assay_protocol: Growth inhibition by aldehydes in product vehicles, pour-plate technique
- Format: cell-based
- assay_context: in sucrose syrup, 1 to 5 percent aldehyde, 2 h incubation
outcome_measure: Growth Inhibition (Per cent)
Answer in Per cent, number only, no unit symbol.

compound | Growth Inhibition (Per cent)
O=C[C@H](O)CO (racemic) | 90

The record that follows has no Growth Inhibition shown yet.
Reported Growth Inhibition for "O=CCO" : what is it?
80

====

- Tested on: Streptococcus spp. KI-R
- assay_protocol: Growth inhibition by aldehydes in product vehicles, pour-plate technique
- Format: cell-based
- assay_context: in sucrose syrup, 1 to 5 percent aldehyde, 5 h incubation
Recorded Growth Inhibition by entry

Worked examples follow.
molecule | result
O=CCO | > 99.9 Per cent
CC(=O)C=O | > 99.99 Per cent
O=CCCCC=O | > 99 Per cent
O=C[C@H](O)CO (racemic) | 90 Per cent

# next molecule below
Would you mind telling me what Growth Inhibition value was observed for "CCCCCCCCCC=O" ?
> 99.99 Per cent

====

- Test system: Streptococcus spp. KI-R
- assay_protocol: Acid production inhibition by aldehydes in product vehicles, broth-tube technique
- Type: cell-based
- assay_context: in toothpaste (aqueous extract), 1 to 5 percent aldehyde, 24 h incubation
Catalogue of Acid Production Inhibition values

Example entries and their recorded answers appear below.
compound | outcome_measure | result
O=CCO [Glycolaldehyde] | Acid Production Inhibition | 0 Per cent
O=CCCCC=O [Glutaraldehyde] | Acid Production Inhibition | 84 Per cent
CC(=O)C=O [Pyruvaldehyde] | Acid Production Inhibition | 0 Per cent
O=C[C@H](O)CO (racemic) [d,1-Glyceraldehyde] | Acid Production Inhibition | 0 Per cent

Could you now look at the following compound, please?
Consider the compound shown here: CCCCCCCCCC=O [Decanaldehyde] What is its recorded Acid Production Inhibition?
67 Per cent
